Biological target: SSTR1 (Homo sapiens (Human))
Sequence (P30872 whole entry): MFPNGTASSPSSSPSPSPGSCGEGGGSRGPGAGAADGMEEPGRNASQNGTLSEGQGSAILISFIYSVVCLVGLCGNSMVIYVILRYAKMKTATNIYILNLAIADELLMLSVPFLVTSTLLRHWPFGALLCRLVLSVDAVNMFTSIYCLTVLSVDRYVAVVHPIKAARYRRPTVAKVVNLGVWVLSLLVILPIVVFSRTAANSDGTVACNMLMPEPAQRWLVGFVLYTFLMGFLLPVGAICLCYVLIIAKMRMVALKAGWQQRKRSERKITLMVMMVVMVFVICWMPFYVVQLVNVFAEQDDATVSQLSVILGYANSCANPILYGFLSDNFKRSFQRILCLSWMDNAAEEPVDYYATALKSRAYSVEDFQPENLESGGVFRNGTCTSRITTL
Experiment: SSTR1 I-125 somatostatin competition binding assay for selectivity versus SSTR4 (membranes from CHO-K1 cells overexpressing SSTR1);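 further: Filter-based radioligand binding, bound label counted by scintillation after 60 min incubation at room temperature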
Conditions: competition with I-125 labeled somatostatin, CHO-K1 SSTR1 membranes
quantityMeasured: SSTR1 Binding pIC50

Cc1nn(C)cc1[C@@H]1CN(C)C[C@H]1NC(=O)C(C)(C)COc1ncccc1OC(F)(F)F (relative stereo); 6.4
Cc1cccnc1OCC(C)(C)C(=O)N[C@@H]1CCN(C)C[C@H]1C (relative stereo); 4.7
C[C@H]1C[C@@H](NC(=O)C(C)(C)COc2ncccc2OC(F)(F)F)CCN1C [Example 152]; 4.6
Cc1nn(C)cc1[C@@H]1CN(C)C[C@H]1NC(=O)C(C)(C)COc1ncccc1C1CC1 (relative stereo); 6.4

Entry source: patent US11045457B2
